Where these numbers come from: PubChem BioAssay AID624151

test: mutant p53 pathway re-activators, primary screen, cell-based, SW480, luciferase, single point, HTS (AID 624151); details: SW480 PUMA-promoter luciferase, p53 mutant reactivation; at 9.98 µM; active compounds read high
The campaign covered roughly 28,000 compounds. About 410 (1.5%) were called active. What follows is part of a selection rich in actives, with near analogues and random picks from the rest.
Items are presented alongside their recorded activation.
Property measured: activation

| Given smiles | Value |
| --- | --- |
| Cc1cc2oc(C(=O)Nc3sc4c(c3C(=O)NCc3ccco3)CCC4)c(C)c2cc1C | -5.36% (inactive) |
| COc1ccccc1-n1c(N)cc(=O)nc1SCC(=O)Nc1ccc(Br)cc1 | 3.88% (inactive) |
| COc1ccccc1NC(=O)CN(c1ccc(Br)c(C)c1)S(C)(=O)=O | 7.45% (inactive) |
| CCn1cc(CNC(=S)Nc2cc(OC)ccc2OC)cn1 | -10.5% (inactive) |
| O=C(CSc1nnc(-c2ccco2)n1-c1ccccc1)Nc1ccc(F)cc1 | 7.08% (inactive) |
| Cc1ccc2nc(-c3ccncc3)cc(C(=O)NCc3ccccn3)c2c1 | -3.82% (inactive) |
| CS(=O)(=O)N(CC(=O)Nc1ccc(Br)cc1)c1cc(Cl)c(Cl)cc1Cl | -23.8% (inactive) |
